target.or.system: SARS-CoV-2 NSP3 Mac1 (Severe acute respiratory syndrome coronavirus 2, UniProt P0DTD1)
assay.overview: biochemical
Type: binding
measurement.context: MIDAS hit compounds and analogues, 125 µM; read-out: Inhibition at top concentration of 125 µM (%)
Reported inhibition at 125 µM maps to class as: lower = under 20%, middle = from 20% up to 40%, upper = 40% and over

Before answering, review these 10 worked examples.
CC(=O)N1CCN(C(=O)c2cc(-c3cccs3)nc3c2c(C)nn3C)CC1 | upper
CC(C)n1ncc2c(C(=O)N3CCC(C)(CO)CC3)cc(-c3cccs3)nc21 | middle
CCn1ncc2c(C(=O)Nc3cccc(-c4nnco4)c3)cc(-c3cccs3)nc21 | lower
CCCCNC(=O)c1ccc(-c2cc(N)nc3[nH]ccc23)o1 | upper
CC(=O)N1CCN(C(=O)c2ccc(-c3ncnc4[nH]ccc34)cc2)CC1 | upper
Cc1nn(C)c2nc(-c3ccccc3)cc(C(=O)N3CCN(C(=O)C4CC4)CC3)c12 | upper
CC(C)n1ncc2c(C(=O)N3CCCC3)cc(-c3cccs3)nc21 | upper
Cn1ccc2c(-c3cncc(C(=O)N4CCCCC4)n3)ccnc21 | middle
CCn1ncc2c(C(=O)NCc3ccc(OC)nc3)cc(-c3cccs3)nc21 | lower
CCCNC(=O)c1cc(-c2ccc(OC)cc2)nc2ccccc12 | middle

Prompt: Which category does the recorded inhibition at 125 µM put CCn1ncc2c(C(=O)NCCNC(C)=O)cc(-c3cccs3)nc21 in?
Completion: lower

Prompt: CCN(C)C(=O)c1ccc(-c2ccnc3c2ccn3C)nc1 ?
Completion: middle

Prompt: CC(C)n1ncc2c(C(=O)N3CCNC(=O)C3)cc(-c3cccs3)nc21 ?
Completion: upper

Prompt: CCCN(CC(=O)Nc1ccccc1C)C(=O)c1cc(-c2cccs2)nc2c1cnn2CC ?
Completion: lower

Prompt: CC(C)n1ncc2c(C(=O)N3CC(=O)Nc4ccccc43)cc(-c3cccs3)nc21 ?
Completion: lower

Prompt: CCn1ncc2c(C(=O)N3CCNC(=O)C3)cc(-c3cccs3)nc21 ?
Completion: upper

Prompt: CN(C)C(=O)c1cncc(-c2ccnc3c2ccn3C)n1 ?
Completion: lower

Prompt: COc1ccc(-c2cc(C(=O)Nc3cccc(S(=O)(=O)N(C)C)c3)c3ccccc3n2)cc1 ?
Completion: middle

Prompt: CCn1ncc2c(C(=O)N(C)CC(=O)NCc3ccco3)cc(-c3cccs3)nc21 ?
Completion: upper

Prompt: O=C(O)c1cc(-c2ccc(OC(F)F)cc2)nc2ccccc12 ?
Completion: lower

Prompt: CNC(=O)CN(C)C(=O)c1cc(-c2cccs2)nc2c1c(C)nn2C ?
Completion: upper

* * *

Below: a set of entries, each annotated with reported inhibition at 25 µM.
target.or.system: SARS-CoV-2 NSP3 Mac1 (Severe acute respiratory syndrome coronavirus 2, UniProt P0DTD1)
assay.overview: biochemical
Type: binding
measurement.context: BioAscent virtual screening hit compounds, 25 µM, duplicate

O=c1cc(-c2ccc(Cl)cc2)oc2cc(OCC(O)CS(=O)(=O)c3ccc(Cl)cc3)ccc12 (stereo not shown) [BCC0030992] | 31.6%
CN(C)S(=O)(=O)c1ccc2nc(C(=O)O)n(O)c2c1 [BCC0019152, CN(C)S(=O)(=O)c1ccc2nc(C(=O)O)n(O)c2c1] | 32.7%
O=c1c(O)c(-c2cccs2)oc2ccccc12 [BCC0111915, O=c1c(O)c(-c2cccs2)oc2ccccc12] | 62.9%
CCN1C(=O)c2cccc3c(S(=O)(=O)O)ccc1c23 [BCC0032304, CCN1C(=O)c2cccc3c(S(=O)(=O)O)ccc1c23] | 36.4%

Prompt: // inhibition at 25 µM lookup, key: Oc1nc2ccccc2nc1-c1c[nH]c2ccccc12 [BCC0071692, Oc1nc2ccccc2nc1-c1c[nH]c2ccccc12]
Completion: 35%

Prompt: O=c1ccsn1-c1ccc(F)c(Cl)c1 [BCC0125028, O=c1ccsn1-c1ccc(F)c(Cl)c1] ?
Completion: 57.5%

Prompt: Nc1ccc2c(c1)C/C(=C/c1ccco1)C2=O [BCC0121661, Nc1ccc2c(c1)C/C(=C/c1ccco1)C2=O] ?
Completion: 56.9%

Prompt: CN1C(=O)c2ccc(N3CCCC3)cc2C1=O [BCC0067629, CN1C(=O)c2ccc(N3CCCC3)cc2C1=O] ?
Completion: 30.5%

Prompt: COc1cc(/C=C2\Oc3cc(O)ccc3C2=O)ccc1O [BCC0002149, COc1cc(/C=C2\Oc3cc(O)ccc3C2=O)ccc1O] ?
Completion: 47.2%
